System: Enterococcus spp.
Assay: minimum inhibitory concentration (MIC)
Conditions: isolate (source animal id): 197
So I've got a bunch of molecules here, and I need their minimum inhibitory concentration values.
One number for each entry, in µg/mL.

# minimum inhibitory concentration of CNC(C)C1CCC(N)C(OC2C(N)CC(N)C(OC3OCC(C)(O)C(NC)C3O)C2O)O1 (stereo not drawn) = 8

---
# minimum inhibitory concentration of `CC1(C)S[C@@H]2[C@H](NC(=O)[C@H](N)c3ccccc3)C(=O)N2[C@H]1C(=O)O` = 0.5

====

Test system: Enterococcus spp.
Experiment: minimum inhibitory concentration (MIC)
Conditions: isolate (source animal id): 123
OBSERVABLE: minimum inhibitory concentration (µg/mL)
One number for each entry, in µg/mL.

Examples from the recorded data:
# minimum inhibitory concentration of CC1(C)S[C@@H]2[C@H](NC(=O)Cc3ccccc3)C(=O)N2[C@H]1C(=O)O [Penicillin] = 1

# minimum inhibitory concentration of CNC(C)C1CCC(N)C(OC2C(N)CC(N)C(OC3OCC(C)(O)C(NC)C3O)C2O)O1 (configuration not stated) [Gentamicin] = 8

# minimum inhibitory concentration of CCN1CCN(c2cc3c(cc2F)c(=O)c(C(=O)O)cn3C2CC2)CC1 [Enrofloxacin] = 0.5

Pending compound:
# minimum inhibitory concentration of NC[C@@H]1O[C@H](O[C@H]2[C@@H](O)[C@H](O[C@@H]3[C@@H](O)[C@H](N)C[C@H](N)[C@H]3O[C@H]3O[C@H](CN)[C@@H](O)[C@H](O)[C@H]3N)O[C@@H]2CO)[C@H](N)[C@@H](O)[C@@H]1O [Neomycin] = 16
